- system under test: T1, human CD81 on CD81-expressing cells (Jurkat E6.1, human PBMC, Ramos) (human, UniProt P60033 1-236)
- T1 sequence: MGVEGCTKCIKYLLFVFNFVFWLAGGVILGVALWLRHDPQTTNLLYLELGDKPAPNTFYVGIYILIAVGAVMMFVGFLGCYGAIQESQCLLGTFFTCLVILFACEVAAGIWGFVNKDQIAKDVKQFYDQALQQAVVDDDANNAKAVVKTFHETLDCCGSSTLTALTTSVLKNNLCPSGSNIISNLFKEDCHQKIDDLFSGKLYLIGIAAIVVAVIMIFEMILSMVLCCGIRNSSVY
- test name: cell-based or functional assay
assay endpoint: Jurkat chemotaxis (% of control IgG4) at 0.01 µg/mL (%)
Write the value in % as a bare number.

Below: 2 binders and their reported Jurkat chemotaxis (% of control IgG4) at 0.01 µg/mL.
# binder, value unit, test result
rows = [
    ("002-F05 (antibody, human IgG4 S228P, lambda, V domains shown, IgG4 S228P) VH: EVQLLESGGGLVQPGGSLRLSCAASGFTFSSNYMSWVRQAPGKGLEWVSYISSSSTYTDYADSVKGRFTISRDNSKNTLYLQMNSLRAEDTAVYYCARYSYGRDDFDYWGQGTLVTVSS VL: QSVLTQPASASGTPGQRVTISCTGSTSNIGAGYDTHWYQQLPGTAPKLLIYGNSNRPSGVPDRFSGSKSGTSASLAISGLRSEDEADYYCQSYDTNLNVWVFGGGTKLTVLG", "%", 79),
    ("003-F08 (antibody, human IgG4 S228P, lambda, V domains shown, IgG4 S228P) VH: EVQLLESGGGLVQPGGSLRLSCAASGFTFSSNYMSWVRQAPGKGPEWVSYISSSSTYADYADSVKGRFTISRDNSKNTLYLQMNSLRAEDTAVYYCARYSYGRDNFDYWGQGTLVTVSS VL: QSVLTQPSSASGTPGQRVTISCTGSTSNIGAGYDTHWYQQLPGTAPKLLIYGNSNRPSGVPDRFSGSKSGTSASLAISGLRSEDEADYYCQSYDTNLSAWVFGGGTKLTVLG", "%", 79),
]

Proceeding to the next binder to report its Jurkat chemotaxis (% of control IgG4) at 0.01 µg/mL.
Supply recorded Jurkat chemotaxis (% of control IgG4) at 0.01 µg/mL for 002-D08 (antibody, human IgG4 S228P, lambda, V domains shown, IgG4 S228P) VH: EVQLLESGGGLVQPGGSLRLSCATSGFPFSSNYMSWVRQAPGKGLEWVSYISSSSTYSDYADSVKGRFSISRDNSKNTLYLQMNSLRAEDTAVYYCARYSYGRDNFDYWGQGTLVTVSS VL: QSVLTQPSSASGTPGQRVTISCTGSTSNIGAGYATHWYQQLPGTAPKLLIYGNSNRPSGVPDRFSGSKSGTSASLAISGLRSEDEADYYCQSYDTNLSVWVFGGGTKLTVLG here.
105
